These data points were gathered from patent US20260248892A1.

molecular target: Rat IR (rat, UniProt P15127 27-1383); experiment: cell-based or functional assay
Sequence (P15127 27-1383): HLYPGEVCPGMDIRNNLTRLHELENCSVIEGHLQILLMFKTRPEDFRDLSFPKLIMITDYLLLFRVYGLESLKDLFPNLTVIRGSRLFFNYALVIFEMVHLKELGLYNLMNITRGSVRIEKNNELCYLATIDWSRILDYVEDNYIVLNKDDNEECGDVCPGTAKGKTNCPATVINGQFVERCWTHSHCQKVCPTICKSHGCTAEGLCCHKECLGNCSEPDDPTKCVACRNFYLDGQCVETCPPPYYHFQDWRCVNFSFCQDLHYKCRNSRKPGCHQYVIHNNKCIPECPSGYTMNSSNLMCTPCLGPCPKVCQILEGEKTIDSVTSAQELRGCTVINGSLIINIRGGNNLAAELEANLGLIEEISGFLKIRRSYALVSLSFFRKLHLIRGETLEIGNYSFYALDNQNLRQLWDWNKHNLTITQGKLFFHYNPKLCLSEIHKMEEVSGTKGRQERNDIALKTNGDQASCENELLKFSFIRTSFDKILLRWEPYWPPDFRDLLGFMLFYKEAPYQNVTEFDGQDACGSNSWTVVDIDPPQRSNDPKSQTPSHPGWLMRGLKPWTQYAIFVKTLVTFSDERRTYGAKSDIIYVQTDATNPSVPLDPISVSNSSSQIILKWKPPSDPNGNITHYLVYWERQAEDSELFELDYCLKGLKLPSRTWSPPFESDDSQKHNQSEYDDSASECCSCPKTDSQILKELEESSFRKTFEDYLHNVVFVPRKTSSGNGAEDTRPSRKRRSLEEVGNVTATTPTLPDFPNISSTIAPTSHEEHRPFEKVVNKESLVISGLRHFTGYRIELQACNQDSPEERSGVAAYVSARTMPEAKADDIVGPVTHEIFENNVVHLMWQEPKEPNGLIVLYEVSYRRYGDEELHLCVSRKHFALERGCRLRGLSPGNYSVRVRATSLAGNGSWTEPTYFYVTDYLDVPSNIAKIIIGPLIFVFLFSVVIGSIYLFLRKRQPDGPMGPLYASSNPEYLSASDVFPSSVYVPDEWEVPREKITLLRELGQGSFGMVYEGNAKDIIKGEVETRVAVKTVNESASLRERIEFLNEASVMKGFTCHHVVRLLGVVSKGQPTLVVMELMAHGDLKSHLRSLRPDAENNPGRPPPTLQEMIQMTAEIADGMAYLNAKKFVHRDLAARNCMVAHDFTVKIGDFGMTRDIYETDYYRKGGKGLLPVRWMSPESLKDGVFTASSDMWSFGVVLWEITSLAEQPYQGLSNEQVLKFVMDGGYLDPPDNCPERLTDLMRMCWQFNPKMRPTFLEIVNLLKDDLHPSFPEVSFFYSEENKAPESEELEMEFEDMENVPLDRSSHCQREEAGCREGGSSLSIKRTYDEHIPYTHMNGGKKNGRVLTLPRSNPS

Binder: scl-Fc fusion protein INS007 (Fc fusion) SFVNQHLCGSHLVEALHLVCGERGFAYTDKTGSYPGGVGIVEQCCTSICSLEQLENYCGGEAEDLQVGQVELGGGPGAGSLQPEGSLQGGPSVFLFPPKPKDTLMISRTPEVTCVVVDVSHEDPEVKFNWYVDGVEVHNAKTKPREEQYNSTYRVVSVLTVLHQDWLNGKEYKCKVSNKALPAPIEKTISKAKGQPREPQVYTLPPSRDELTKNQVSLTCLVKGFYPSDIAVEWESNGQPENNYKTTPPVLDSDGSFFLYSKLTVDKSRWQQGNVFSCSVMHEALHNHYTQKSLSLSPGGGGGSAESKYGPPCPPCPA
Rat IR phosphorylation [EC50 nM] mean / nM: 54.8
